Below, each entry is listed alongside its reported IC50.
Target: purified recombinant human GAC (GLS1) (Homo sapiens (Human))
Assay: GLS1 Enzymatic Activity Assay (dual-coupled enzymatic assay, resorufin/Amplex UltraRed readout)

Past entries and their recorded results:
Cc1ccc(CNC(=O)c2cn(CCCCn3cc(C(=O)NCc4cccc(OC(F)(F)F)c4)nn3)nn2)cn1 | < 100 nM
CNC(=O)c1cn(CCCCc2ccc(NC(=O)Cc3cccc(C4CCN(C(=O)OC(C)(C)C)CC4)c3)nn2)nn1 | < 100 nM
CC1(C)Oc2ccc(CNC(=O)c3cn(CCCCn4cc(C(=O)NCc5cc(C(F)(F)F)ccn5)nn4)nn3)cc2O1 | < 100 nM
O=C(Cc1cccc(OC(F)(F)F)c1)Nc1ccc(CCCCc2nnc(C(=O)NCc3ccccn3)s2)nn1 | < 100 nM
NC(=O)c1cn(CCCCc2nnc(NC(=O)Cc3cccc(OC(F)(F)F)c3)s2)nn1 | 100 to 500 nM

Memo: O=C(NCc1cc(C(F)(F)F)ccn1)c1cn(CCCCn2cc(C(=O)NCC3CCCCO3)nn2)nn1 (stereo not drawn) , reported IC50: 500 to 5000 nM

Memo: O=C(NCc1ccccc1)c1cn(CCCCc2nnc(C(=O)NCc3ccccn3)s2)nn1 , reported IC50: 100 to 500 nM

Memo: CNC(=O)c1cn(CC(F)CCn2cc(C(=O)NCc3cc(C(F)(F)F)ccn3)nn2)nn1 (stereo not drawn) , reported IC50: 100 to 500 nM

* * *

Below, each entry is listed alongside its reported IC50.
Target: purified recombinant human GAC (GLS1) (Homo sapiens (Human), UniProt O94925)
Sequence (O94925 other isoform, or with tags, fused parts or gaps): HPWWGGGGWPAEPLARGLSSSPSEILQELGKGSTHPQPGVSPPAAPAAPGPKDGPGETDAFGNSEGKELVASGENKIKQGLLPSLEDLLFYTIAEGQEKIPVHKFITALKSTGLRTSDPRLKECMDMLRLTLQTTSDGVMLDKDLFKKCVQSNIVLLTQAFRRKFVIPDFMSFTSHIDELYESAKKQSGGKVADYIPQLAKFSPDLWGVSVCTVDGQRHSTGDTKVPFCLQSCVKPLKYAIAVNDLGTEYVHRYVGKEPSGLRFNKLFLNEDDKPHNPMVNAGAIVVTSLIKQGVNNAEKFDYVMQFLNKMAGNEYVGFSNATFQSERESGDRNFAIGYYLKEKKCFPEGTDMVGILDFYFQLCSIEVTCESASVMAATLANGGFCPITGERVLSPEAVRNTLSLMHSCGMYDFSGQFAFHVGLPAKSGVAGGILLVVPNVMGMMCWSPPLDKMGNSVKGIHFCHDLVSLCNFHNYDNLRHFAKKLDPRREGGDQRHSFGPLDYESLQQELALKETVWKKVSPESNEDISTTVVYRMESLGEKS
Test: GLS1 Enzymatic Activity Assay (dual-coupled enzymatic assay, resorufin/Amplex UltraRed readout)

O=C(Cc1ccncc1)Nc1ccc(CCCCn2cc(C(=O)NCc3cc(OC(F)(F)F)ccc3F)nn2)nn1 | < 100 nM

Short answer on purified recombinant human GAC (GLS1) (Homo sapiens (Human), UniProt O94925) for CNC(=O)c1cn(CCC(F)Cn2cc(NC(=O)Cc3cc(OC(F)(F)F)ccc3F)nn2)nn1 (stereo not drawn) , IC50: < 100 nM

Short answer on purified recombinant human GAC (GLS1) (Homo sapiens (Human), UniProt O94925) for Cc1ccc(CC(=O)Nc2cn(CCCCn3cc(C(=O)NCC4CCCC4)nn3)nn2)cn1 , IC50: 100 to 500 nM

Short answer on purified recombinant human GAC (GLS1) (Homo sapiens (Human), UniProt O94925) for O=C(Cc1ccccn1)Nc1ccc(CCCCn2cc(C(=O)NCc3cc(OC(F)(F)F)ccc3F)nn2)nn1 , IC50: < 100 nM

Short answer on purified recombinant human GAC (GLS1) (Homo sapiens (Human), UniProt O94925) for Cc1ccc(CC(=O)Nc2cn(CC(F)CCn3cc(C(=O)NCc4ncccc4F)nn3)nn2)cn1 (stereo not drawn) , IC50: 100 to 500 nM

Short answer on purified recombinant human GAC (GLS1) (Homo sapiens (Human), UniProt O94925) for O=C(Cc1cccc(OC(F)(F)F)c1)Nc1nnc(CCC(F)Cn2cc(C(=O)NCc3cc(C(F)(F)F)ccn3)nn2)s1 (stereo not drawn) , IC50: < 100 nM

* * *

Target: purified recombinant human GAC (GLS1) (Homo sapiens (Human), UniProt O94925)
Experiment: GLS1 Enzymatic Activity Assay (dual-coupled enzymatic assay, resorufin/Amplex UltraRed readout);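 also: glutamate from GAC coupled via glutamate oxidase and peroxidase to resorufin, read as fluorescence (ex 530, em 590 nm) kinetically or at 20 min, four-parameter logistic IC50 fit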
Below, each entry is listed alongside its reported IC50.

Past entries and their recorded results:
O=C(Cc1cccnc1)Nc1cn(CCCCn2cc(C(=O)NCC3CCCCC3)nn2)nn1 [Example 284] | 100 to 500 nM
CNC(=O)c1cn(CC(F)CCc2nnc(NC(=O)Cc3cncc(-c4cccc(OC(F)(F)F)c4)c3)s2)nn1 (stereo not shown) [Example 195] | < 100 nM
O=C(Cc1cccc(OC(F)(F)F)c1)Nc1nnc(CCCCn2cc(C(=O)NCc3cccnc3)nn2)s1 [Example 1] | < 100 nM

Memo: O=C(NCC1CCOCC1)c1cn(CCC(F)Cn2cc(C(=O)NCc3cc(C(F)(F)F)ccn3)nn2)nn1 (stereo not shown) [Example 457] , reported IC50: 500 to 5000 nM

* * *

Below, each entry is listed alongside its reported IC50.
Molecular target: purified recombinant human GAC (GLS1) (Homo sapiens (Human))
Assay: GLS1 Enzymatic Activity Assay (dual-coupled enzymatic assay, resorufin/Amplex UltraRed readout)

Past entries and their recorded results:
O=C(Cc1ccccc1)Nc1ccc(CCCCc2nnc(C(=O)NCc3ccccc3)s2)nn1 | < 100 nM
O=C(Cc1cccc(OC(F)(F)F)c1)Nc1nnc(CCCCn2cc(C(=O)NCC3CC3)nn2)s1 | < 100 nM
CC(C)(O)CNC(=O)c1nnc(CCCCn2cc(C(=O)NCc3cccc(OC(F)(F)F)c3)nn2)s1 | 500 to 5000 nM
O=C(NCc1cc(OC(F)(F)F)ccc1F)c1cn(CC(F)CCc2nnc(NC(=O)C3CCCCO3)s2)nn1 (stereo not drawn) | < 100 nM
O=C(Cc1cccc(OC(F)(F)F)c1)Nc1nnc(CCC(F)Cn2cc(C(=O)NCC(F)(F)F)nn2)s1 (stereo not drawn) | < 100 nM
O=C(Cc1cc(OC(F)(F)F)ccc1F)Nc1cn(CC(F)CCn2cc(C(=O)NCc3cc(OC(F)(F)F)ccc3F)nn2)nn1 (stereo not drawn) | < 100 nM
NC(=O)c1cn(CC(F)CCc2nnc(NC(=O)Cc3cccc(OC(F)(F)F)c3)s2)nn1 (stereo not drawn) | < 100 nM
O=C(Cc1cc(OC(F)(F)F)ccc1F)Nc1nnc(CCC(F)Cn2cc(C(=O)NCc3cccnc3)nn2)s1 (stereo not drawn) | < 100 nM
Cc1ccc(CC(=O)Nc2cn(CC(F)CCn3cc(C(=O)NCc4ccccn4)nn3)nn2)cn1 (stereo not drawn) | 100 to 500 nM
O=C(NCc1ccc(C(F)(F)F)cn1)c1cn(CC(F)CCc2nnc(C(=O)NCc3cc(OC(F)(F)F)ccc3F)s2)nn1 (stereo not drawn) | < 100 nM

Short answer on purified recombinant human GAC (GLS1) (Homo sapiens (Human)) for CC(=O)Nc1ccc(CCCCn2cc(C(=O)NCc3cc(C(F)(F)F)ccn3)nn2)nn1 , IC50: < 100 nM

Short answer on purified recombinant human GAC (GLS1) (Homo sapiens (Human)) for CNC(=O)c1cn(CCCCc2ccc(NC(=O)[C@@H](C)c3ccccc3)nn2)nn1 , IC50: < 100 nM

Short answer on purified recombinant human GAC (GLS1) (Homo sapiens (Human)) for O=C(Cc1ccccc1)Nc1nnc(CCCCCn2cc(C(=O)NCc3ccccc3)nn2)s1 , IC50: 100 to 500 nM

Short answer on purified recombinant human GAC (GLS1) (Homo sapiens (Human)) for CC(C)(C)OC(=O)N1CC(CNC(=O)c2nnc(CCCCn3cc(C(=O)NCc4cccc(OC(F)(F)F)c4)nn3)s2)C1 , IC50: < 100 nM

Short answer on purified recombinant human GAC (GLS1) (Homo sapiens (Human)) for CNC(=O)c1cn(CCCCc2ccc(NC(=O)Cc3cnccn3)nn2)nn1 , IC50: 100 to 500 nM

Short answer on purified recombinant human GAC (GLS1) (Homo sapiens (Human)) for O=C(Cc1cccc(OC(F)(F)F)c1)Nc1nnc(CCC(F)Cn2cc(C(=O)NC3CC3)nn2)s1 (stereo not drawn) , IC50: < 100 nM

Short answer on purified recombinant human GAC (GLS1) (Homo sapiens (Human)) for O=C(CN1CC(F)(F)C1)Nc1cn(CC(F)CCn2cc(C(=O)NCc3ncccc3F)nn2)nn1 (stereo not drawn) , IC50: 500 to 5000 nM

Short answer on purified recombinant human GAC (GLS1) (Homo sapiens (Human)) for CNC(=O)c1cn(CC(F)CCc2ccc(NC(=O)Cc3cncc(OC4CC(F)(F)C4)c3)nn2)nn1 (stereo not drawn) , IC50: < 100 nM

* * *

Target: purified recombinant human GAC (GLS1) (Homo sapiens (Human))
Test: GLS1 Enzymatic Activity Assay (dual-coupled enzymatic assay, resorufin/Amplex UltraRed readout)
pIC50: −log10 of the molar value.
Below, each entry is listed alongside its reported pIC50.

Past entries and their recorded results:
CNC(=O)c1cn(CCCCc2ccc(NC(=O)Cc3ccccc3)nn2)nn1 [Example 161] | > 7.00
O=C(NCc1cccc(OC(F)(F)F)c1)c1cn(CCC(F)Cn2cc(C(=O)NCc3cncc(C(F)(F)F)c3)nn2)nn1 (stereo not shown) [Example 477] | > 7.00
CS(=O)(=O)NCc1cn(CCCCn2cc(C(=O)NCc3cccc(OC(F)(F)F)c3)nn2)nn1 [Example 9] | 5.30 to 6.30
CNC(=O)c1cn(CCCCc2ccc(NC(=O)Cc3cn(-c4cccc(OC(F)(F)F)c4)cn3)nn2)nn1 [Example 604] | > 7.00
Cc1ccc(CNC(=O)c2cn(CCCCc3nnc(C(=O)NCc4cccc(OC(F)(F)F)c4)s3)nn2)cn1 [Example 61] | > 7.00
COc1ccc(CNC(=O)c2cn(CC(F)CCc3nnc(NC(=O)Cc4cc(OC(F)(F)F)ccc4F)s3)nn2)cn1 (stereo not shown) [Example 219] | > 7.00

Memo: CNC(=O)c1cn(CCC(F)Cn2cc(C(=O)NCc3ccc(C(F)(F)F)nc3)nn2)nn1 (stereo not shown) [Example 186] , reported pIC50: 6.30 to 7.00
